Listing: IL-1α IC50 of selected binders
Molecular target: T1, human IL-1α (human, UniProt P01583 113-271)
T1 sequence (looked up): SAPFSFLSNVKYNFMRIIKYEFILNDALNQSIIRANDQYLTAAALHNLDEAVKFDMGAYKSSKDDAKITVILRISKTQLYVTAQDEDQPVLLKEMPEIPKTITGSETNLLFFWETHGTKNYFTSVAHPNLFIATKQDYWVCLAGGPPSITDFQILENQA
Assay: cell-based or functional assay

{"binder": "ABT2-65-166/ABT1-95-184 hu IgG1mut 234, 235/K (bispecific antibody, V domains shown) VH: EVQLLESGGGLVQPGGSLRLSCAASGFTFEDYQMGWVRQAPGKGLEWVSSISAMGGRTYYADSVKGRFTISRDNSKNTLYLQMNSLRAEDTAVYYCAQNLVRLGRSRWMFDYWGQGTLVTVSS VL: DIQMTQSPSSLSASVGDRVTITCRASRTPVRNLRWYQQKPGKAPKLLIYSRSYLEPGVPSRFSGSGSGTDFTLTISSLQPEDFATYHCLQGYRWPPTFGQGTKVEIKR", "IL-1α IC50": "0.068 nM"}
{"binder": "ABT2-108-620x/ABT1-95-15 huIgG1/K wt (bispecific antibody, V domains shown) VH: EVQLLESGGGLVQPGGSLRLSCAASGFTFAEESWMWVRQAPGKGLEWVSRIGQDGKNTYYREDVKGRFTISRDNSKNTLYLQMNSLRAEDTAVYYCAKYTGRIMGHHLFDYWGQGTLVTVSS VL: DIQMTQSPSSLSASVGDRVTITCRASQPIVRNLRWYQQKPGKAPKLLIYSSSYLEPGVPSRFSGSGSGTDFTLTISSLQPEDFATYHCQQGYRWPVTFGQGTKVEIKR", "IL-1α IC50": "5 nM"}
